Attribute: viability, T/C
# Test system: 931267-113-T-J1-PDC multicell spheroid viability;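 note: viability read 7 days after compound addition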
# Test: Anticancer human tumor 931267-113-T-J1-PDC patient-derived colon adenocarcinoma cell line growth inhibition [PI3K]
# Run conditions: second compound 0.0316 µM; first compound 10 µM; stronger effect = lower value

[
  {
    "Compound": "C=CC(=O)N1CCN(c2nc(=O)n(-c3c(C)ccnc3C(C)C)c3nc(-c4c(O)cccc4F)c(F)cc23)C(C)C1 (stereo not given) + COc1c(OCCCN2CCOCC2)ccc2c3n(c(=NC(=O)c4cnc(N)nc4)nc12)CCN3",
    "Units label": "%",
    "viability, T/C": 79.1
  },
  {
    "Compound": "CC1(C)CCC(CN2CCN(c3ccc(C(=O)NS(=O)(=O)c4ccc(NCC5CCOCC5)c([N+](=O)[O-])c4)c(Oc4cnc5[nH]ccc5c4)c3)CC2)=C(c2ccc(Cl)cc2)C1 + Cc1nc(NC(=O)N2CCCC2C(N)=O)sc1-c1ccnc(C(C)(C)C(F)(F)F)c1",
    "Units label": "%",
    "viability, T/C": 19
  },
  {
    "Compound": "CC(C)NCC(C(=O)N1CCN(c2ncnc3c2C(C)CC3O)CC1)c1ccc(Cl)cc1 (stereo not given) + COc1c(OCCCN2CCOCC2)ccc2c3n(c(=NC(=O)c4cnc(N)nc4)nc12)CCN3",
    "Units label": "%",
    "viability, T/C": 65.8
  },
  {
    "Compound": "CNC(=O)c1ccc(N2C(=S)N(c3ccc(C#N)c(C(F)(F)F)c3)C(=O)C2(C)C)cc1F + CC(Nc1ccc2c(c1)OCCn1cc(N3C(=O)OCC3C(F)F)nc1-2)C(N)=O",
    "Units label": "%",
    "viability, T/C": 87.6
  },
  {
    "Compound": "Cn1nccc1Nc1nccc(-c2ccn(C(CO)c3ccc(Cl)c(F)c3)c(=O)c2)n1 (stereo not given) + COc1c(OCCCN2CCOCC2)ccc2c3n(c(=NC(=O)c4cnc(N)nc4)nc12)CCN3",
    "Units label": "%",
    "viability, T/C": 16.1
  }
]
